Tested on: CEM cells HIV-1 protection, formazan growth assay
Experiment: NCI AIDS Antiviral Assay
Settings: measured here: growth of uninfected CEM cells
Method: The ability of compounds to protect human CEM cells from HIV-1 infection is measured as a screen for new compounds capable of inhibiting the HIV virus. Five concentrations of drug were tested on uninfected and infected cells and cell growth was measured using a soluble formazan assay. […] Compounds that provided at least 50% protection were retested. Compounds that provided at least 50% protection on retest were listed as moderately active. […]
pIC50: −log10 of the molar value.
measurement.type: pIC50

Query: Read the entry Cc1cc(Cl)ccc1C1OC(=O)c2c1ccc1ccccc21 (centres undefined) and write its reported pIC50.
Response: < 4.63

Query: Quick one: give measured pIC50 for `CCCCCCCCSC(SCCCCCCCC)=C1C(=O)N(c2ccccc2)N=C1C`
Response: < 4.54

Query: Please indicate pIC50 recorded for `O=C(c1ccc(Cl)cc1)c1ccc(OCC(=O)N2CCN(c3ccccc3)CC2)cc1`
Response: < 4.92

Query: Quote pIC50 reported for `COc1ccc2c(c1)O[C@]1(O)c3cc4c(cc3O[C@@H]1C2)OCO4` please.
Response: < 4.92
